procedure_details: Plasma pharmacokinetics (non-compartmental analysis), healthy Wistar rats
Format: in vivo
settings: rat, plasma, iv, i.v. 50 mg/kg, NCA, mean ± SD, n = 6, read-out: CL, clearance (converted)
test_readout: clearance
Entry format: amount then unit.

Item: C=CC(C)(O)CCC=C(C)C (stereo not shown) | clearance: 50.5 mL/min/kg

----------
procedure_details: Plasma pharmacokinetics (non-compartmental analysis), healthy Wistar rats
Assay type: in vivo
settings: rat, plasma, iv, i.v. 50 mg/kg, NCA, mean ± SD, n = 6, read-out: MRT, Mean Residence Time
test_readout: MRT (h)
The reply should contain only the number, in h.

Item: C=CC(C)(O)CCC=C(C)C (stereo not shown) [LIN, 3,7-dimethyl-1,6-octadien-3-ol] | MRT: 8.75

----------
procedure_details: Plasma pharmacokinetics (non-compartmental analysis), healthy Wistar rats
Format: in vivo
settings: rat, plasma, oral 100 mg/kg, NCA, mean ± SD, n = 6, read-out: t1/2, half-life (converted)
test_readout: half-life (h)
The reply should contain only the number, in h.

Item: C=CC(C)(O)CCC=C(C)C (stereo not shown) [LIN, 3,7-dimethyl-1,6-octadien-3-ol] | half-life: 8.64

----------
procedure_details: Plasma pharmacokinetics (non-compartmental analysis), healthy Wistar rats
Assay type: in vivo
settings: rat, plasma, oral 100 mg/kg, NCA, mean ± SD, n = 6, read-out: ke, elimination rate constant (converted)
Method: A bioanalytical methodology was developed and validated to quantify LIN in rat plasma using high-performance liquid chromatography with UV detection (HPLC/UV), according to RDC 27/2012 of the National Agency of Sanitary Vigilance, Brazil. […] The mobile phase was composed of water: acetonitrile (70:30, v/v), at a flow rate of 1 mL/min. LIN was detected at a wavelength of 210 nm, and the peak area was used for the quantitation of samples. […]
test_readout: k el (s⁻¹)
The reply should contain only the number, in s⁻¹.

Item: C=CC(C)(O)CCC=C(C)C (stereo not shown) | k el: 2.5e-05

----------
procedure_details: Population PK model, intravenous administration in healthy rats
Format: in vivo, Wistar rats
settings: Wistar, rat, plasma, iv, 50 mg/kg, i.v., 2-compartment model, linear elimination, combined error, read-out: V, volume of distribution (population estimate)
test_readout: Vd

Item: C=CC(C)(O)CCC=C(C)C (stereo not shown) | Vd: 22.4 L

----------
procedure_details: Plasma pharmacokinetics (non-compartmental analysis), healthy Wistar rats
Assay type: in vivo
settings: rat, plasma, iv, i.v. 50 mg/kg, NCA, mean ± SD, n = 6, read-out: ke, elimination rate constant (converted)
test_readout: k el

Item: C=CC(C)(O)CCC=C(C)C (stereo not shown) | k el: 3.61e-05 s⁻¹

----------
procedure_details: Plasma pharmacokinetics (non-compartmental analysis), healthy Wistar rats
Type: in vivo
settings: rat, plasma, iv, i.v. 50 mg/kg, NCA, mean ± SD, n = 6, read-out: AUC0−∞, Total Area Under the Curve
test_readout: AUC(0-inf)
Entry format: amount then unit.

Item: C=CC(C)(O)CCC=C(C)C (stereo not shown) | AUC(0-inf): 25300 ng·h/mL

----------
procedure_details: Plasma pharmacokinetics (non-compartmental analysis), healthy Wistar rats
Type: in vivo
settings: rat, plasma, oral 100 mg/kg, NCA, mean ± SD, n = 6, read-out: AUC0−∞, Total Area Under the Curve
test_readout: AUC(0-inf) (ng·h/mL)
The reply should contain only the number, in ng·h/mL.

Item: C=CC(C)(O)CCC=C(C)C (stereo not shown) | AUC(0-inf): 40
